assay: logP (HPLC-MS); assay type: physicochemical; settings: HPLC, reversed-phase column (C18), acidic range pH 2.7, acetonitrile (0.1% formic acid)/water gradient, 43° C., calibration with unbranched alkan-2-ones
Measured parameter: log p
// keep it numeric: no unit symbol after the value

# example entries with known answers
C#CCn1c(C(=O)NC(c2ccc(F)c(C(F)(F)F)c2)C(F)(F)F)cc2cc(C(=O)NC3CC3)c(Cl)cc21 (stereo not shown)
3.59
CCn1c(C(=O)NC(c2cccc(Cl)c2)C(F)(F)F)cc2cc(C(=O)NC3(C#N)CC3)c(C)cc21 (stereo not shown)
3.58
N#CC1(NC(=O)c2cc3cc(C(=O)NC(c4cccc(C(F)(F)F)c4)C(F)(F)F)n(C4CCC4)c3cc2Cl)CC1 (stereo not shown)
4.03
CCn1c(C(=O)NC(c2ccc(F)c(Br)c2)C(F)(F)F)cc2cc(C(=O)NC3(C#N)CC3)c(C)cc21 (stereo not shown)
3.71
Cn1c(C(=O)NC(c2ccc(F)c(Br)c2)C(F)(F)F)cc2cc(C(=O)NC3CC3)c(Cl)cc21 (stereo not shown)
3.61
Cn1c(C(=O)NC(c2ccc(F)c(Cl)c2)C(F)(F)F)cc2cc(C(=O)NC3CC3)c(Cl)cc21 (stereo not shown)
3.42

Okay, next one:
# log p lookup, item CCn1c(C(=O)NC(c2cccc(C(F)(F)F)c2)C(F)(F)F)cc2cc(C(=O)NCC#N)c(Cl)cc21 (stereo not shown)
3.64

meta.source: patent US9107411B2
